Reference for the values: paper PMC5551578

Answer each item with its documented Kd.
target: T1, tetanus toxoid (Clostridium tetani, production strain …, UniProt P04958, biotin (biotinylated antigen)); test: BLI
T1 construct: also called TT
T1 sequence (P04958 whole entry): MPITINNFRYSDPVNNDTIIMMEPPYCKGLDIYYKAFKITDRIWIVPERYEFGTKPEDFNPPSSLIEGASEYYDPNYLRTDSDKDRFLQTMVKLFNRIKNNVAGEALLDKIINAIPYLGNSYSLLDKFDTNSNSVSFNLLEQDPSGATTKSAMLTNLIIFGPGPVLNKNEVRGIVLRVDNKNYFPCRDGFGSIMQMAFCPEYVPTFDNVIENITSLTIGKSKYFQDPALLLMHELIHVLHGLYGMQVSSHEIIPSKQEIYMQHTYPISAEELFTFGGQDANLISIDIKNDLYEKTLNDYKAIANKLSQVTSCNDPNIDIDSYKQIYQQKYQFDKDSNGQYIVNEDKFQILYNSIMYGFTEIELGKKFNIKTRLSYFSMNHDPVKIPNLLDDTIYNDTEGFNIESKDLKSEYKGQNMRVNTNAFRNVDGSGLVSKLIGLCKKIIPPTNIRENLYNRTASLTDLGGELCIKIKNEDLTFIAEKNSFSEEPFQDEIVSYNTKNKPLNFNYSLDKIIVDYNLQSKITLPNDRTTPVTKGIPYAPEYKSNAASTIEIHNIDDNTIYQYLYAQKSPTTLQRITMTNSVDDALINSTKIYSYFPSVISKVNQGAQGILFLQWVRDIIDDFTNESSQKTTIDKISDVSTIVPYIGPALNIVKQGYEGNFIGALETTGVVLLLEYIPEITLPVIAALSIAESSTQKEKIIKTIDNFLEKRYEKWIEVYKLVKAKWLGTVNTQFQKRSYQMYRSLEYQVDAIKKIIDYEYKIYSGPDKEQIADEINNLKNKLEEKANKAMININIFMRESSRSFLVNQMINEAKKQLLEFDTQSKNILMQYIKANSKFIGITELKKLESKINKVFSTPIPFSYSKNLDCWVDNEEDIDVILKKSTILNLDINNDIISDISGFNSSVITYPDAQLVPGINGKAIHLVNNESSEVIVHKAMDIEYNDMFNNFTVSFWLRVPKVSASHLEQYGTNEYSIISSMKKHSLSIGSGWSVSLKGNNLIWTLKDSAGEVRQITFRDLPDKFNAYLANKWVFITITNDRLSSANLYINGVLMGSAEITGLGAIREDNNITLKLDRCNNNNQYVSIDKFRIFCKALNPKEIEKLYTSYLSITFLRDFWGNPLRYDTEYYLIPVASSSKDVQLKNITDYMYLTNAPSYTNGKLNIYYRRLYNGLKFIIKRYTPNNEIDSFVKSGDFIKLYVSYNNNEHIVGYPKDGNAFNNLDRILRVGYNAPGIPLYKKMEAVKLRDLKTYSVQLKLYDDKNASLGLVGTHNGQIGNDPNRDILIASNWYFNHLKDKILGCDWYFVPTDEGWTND
Numbers only, in nM.

>  <binder>
TT-Ab4 (antibody, V domains shown, IgG1) VH: EVQLVQSGAEMKKPGSSVKVSCRMSGGKFNNYAMSWVRQAPGQGLEWVGGIIPVLGTANYAQKFQDRVAITADKSTNTAYMELSSLRSDDTAVYYCARVWGTVVTQGPSQVQYNHYGMDVWGQGTTVTVSS VL: DIQLTQSPSSLSASVGDRVTITCRATQSISSSLNWYQHKPGKAPNLLISAASNLQSGVPSRFSGSGSRTDFTLTITNLQPEDFATYYCQQSYTTPLTFGGGTKVEIK

>  <unit annotation>
nM

>  <observed measurement>
0.0137

$$$$
>  <binder>
TT-Ab9 (antibody, V domains shown, IgG1) VH: EVQLVESGGSLVQPGGSLRLSCVGTGFTFNTYWMSWVRQAPGKGLEWVANIKQDGREKHYVDSVMGRFTVSRDNAMNALYLQVNSLRVEDTAVYYCARGMTAWSLGGYQYDYWGQGTQVTVSS VL: DIQMTQSPSSLSASVGDTVTITCRASQGIRSDLGWYQQRPGKAPKLLVYTASTLQTGVPSRFSGSGFGTDFTLTISSLQPEDFATYYCLQNYNYPRTFGQGTKVEIK

>  <unit annotation>
nM

>  <observed measurement>
6.64

$$$$
>  <binder>
TT-Ab7 (antibody, V domains shown, IgG1) VH: EVQLVESGGGWVQPGGSLRLSCAASGFTFNSFGSYGMSWVRQAPGKGLEWVSHISASGAATYYADSVKGRFTISRDNSKNTLLLQMNDLRGEDTATYYCARSVQQYLGLLGYWGQGTLVTVSS VL: QSVLTQSPSASASLGATVKLTCTLSSGHTNYAIAWHQLQPQKAPRYLLKISNDGSHKRGDGIPDRFSGSSSGAERYLTISSLQSEDEAEYYCQTWGAGMGMFGGGTKLTVL

>  <unit annotation>
nM

>  <observed measurement>
0.0185

$$$$
>  <binder>
TT-Ab3 (antibody, V domains shown, IgG1) VH: EVQLVQSGAEVKKPGSSVKVSCKVSGGAFNSYAISWVRQAPGQGLEWMGGIIPILRTANYTEKFQGRVTINADKSTNTAYMELSKLRSEDTAVYYCARVWGTTVTKGPSQIKYYYYGMDVWGQGTTVTVSS VL: DIQMTQSPSSLSASVGDRVTISCRASQSISNYLNWYHQKPGKAPKLLIYAASSLQSGVPSRFSGSGSGTDFTLTISSLQPEDFATYYCQQSYSTPLTFGGGTKVEIK

>  <unit annotation>
nM

>  <observed measurement>
1.61

$$$$
>  <binder>
TT-Ab10 (antibody, V domains shown, IgG1) VH: EVQLVESGGGLVQPGGSLRVSCGASGFTFANFWMSWVRQAPGKGLEWVANINQDGNERKYVDSVKGRFTISRDNDKNSLYLQMNSLRAEDTAVYFCAREYGSYWRTYYFDDWGQGTLVTVSS VL: DIVMTQSPATLSLSPGERATLSCRASQSVSNYLAWYQQKPGQAPRLLIYDASNRASGTPARFSGSGFGTDFTLTISSLDPEDFAVYYCQQGSNWLTFGGGTKVEIK

>  <unit annotation>
nM

>  <observed measurement>
1.59

$$$$

Query: Tell us which Kd value is on record for TT-Ab12 (antibody, V domains shown, IgG1) VH: QVQLQESGPGLVKPSETLSLTCNVSGASISRYYWAWIRQPPGKGLEWIGYIYDSGTTTYNTSLKSRVTISRDTSKNQFSLNMMSVTAADTAVYYCARARYYYDSTGYFYGWLDPWGQGRLVTVSF VL: DIQMTQSPSTLSASVGDRVTITCRASQSINIWLAWYQQRPGKAPDLLIYKASTLQSGVPSRFSGSGSGTEFTLTISSVQPDDFATYYCQQYKSYSCSFGQGTKVEIN
Result: 1.95
